System: MS2 coat protein
Test: apparent KD of MS2 coat protein; higher = weaker reporter binding
Settings: Eterna round: R107; input ligand: none

>  <sequence.string>
ACAUGAGGAUCACCCAUGUAGCCUAGGGAAGGAGCGGCGUAAGAGCCAGGUAGGUCGCCCGCAUGAGGAUCACCCAUGUCGAGGG [Same State Arginine A GF10]

>  <apparent KD of MS2 coat protein [µM]>
0.038

$$$$
>  <sequence.string>
GCCUGGGAUACGGCCGCCACUACAUGAGGAUCACCCAUGUAAUAUUUAUUAGAAGAGAGGGUAUGUAGGACCGGGUAAGGAAGGC [e-trypB-0]

>  <apparent KD of MS2 coat protein [µM]>
0.0158

$$$$
>  <sequence.string>
CGGACAUGAGGAUCACCCAUGUACACUGAAGGAGCGUCGAGAACGACAGGUAGGUCGCAGGUUGAGGAUGGUGAUGCUCAGGUAG [Exclusion Arginine A GF 3]

>  <apparent KD of MS2 coat protein [µM]>
0.0393

$$$$
>  <sequence.string>
AACAUGAGGAUCACCCAUGUAAAACCGGUACGAGGACCGGUACGGCCGCCACUCGAAACAUGAGGAUCACCCAUGUAAUAAUAUU [Same State Trypophan A GF 21]

>  <apparent KD of MS2 coat protein [µM]>
0.0635

$$$$
>  <sequence.string>
ACAUGAGGGAUGGAUACCAGCGACAUGAGGAUCACCCAUGUAUGAGGAUCACCCAUGUUAUGCCCUUGGCAGCCACAAACAUGAG [UUYMULLIN]

>  <apparent KD of MS2 coat protein [µM]>
0.0143

$$$$
>  <sequence.string>
CCAUAGCUAGGAAGGAGCGCAUACUUCACAUGAGGAUCACCCAUGUCGAGACGUGAGUCAGUGCAGGUAGGUCGCCUAGCUAUGG [Same State - Arginine B (Freestyle 29)]

>  <apparent KD of MS2 coat protein [µM]>
0.0186

$$$$
>  <sequence.string>
ACAUGAGGAUCACCCAUGUAAUUGCCGGAAGGAGCGUCAUUAAGGACAGGUAGGUCGCUGGUAGGGUCGUCGGUUACGGCGGCCA [SSArg A #10]

>  <apparent KD of MS2 coat protein [µM]>
0.0111

$$$$
>  <sequence.string>
AUUCUUUACUGAAGGAGCGUCAUUCUUACAUGAGGAUCACCCAUGUUUAUUCUUUAUGAUUGACAGGUAGGUCGCAGAUUUUUUA [#11 Same State - Arginine B]

>  <apparent KD of MS2 coat protein [µM]>
0.0178

$$$$
>  <sequence.string>
AGGACAUGAGGAUCACCCAUGUACACUGAAGGAGCGUCGAGAACGACAGGUAGGUCGCAGGCUAAGGAAGGUGAUGCUCAAGAAG [Exclusion Arginine A GF6]

>  <apparent KD of MS2 coat protein [µM]>
0.0262

$$$$
>  <sequence.string>
AGAAUAUAAUAUAUCAAAGGUAUAACCGAAGGAGCGCCGAAUAAGGCAGGUAGGUCGCGGAAACAUGAGGAUCACCCAUGUCCAU [Arginine A Same State; Euphoria Solution 2]

>  <apparent KD of MS2 coat protein [µM]>
0.0191

$$$$
>  <sequence.string>
AACAUGAGGAUCACCCAUGUAUUGGGUGAUACCAGCCUGAAUAAGGGCCCUUGGCAGCACCGCGCUAACUUUAUGUCUGCGAACC [Rebiercete]

>  <apparent KD of MS2 coat protein [µM]>
0.0541

$$$$
>  <sequence.string>
AAAAGAGGUGGAAGGAGCGGGAGACAUGAGGAUCACCCAUGUGAAGUGACGAAAGGAUCAGCCCAGGUAGGUCGCCAUGUCGAAA [yuiiumullin]

>  <apparent KD of MS2 coat protein [µM]>
0.0439

$$$$

###

# key: entry, value: apparent KD of K4 kissing-loop reporter
Tested on: K4 kissing-loop RNA reporter;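 note: bound reporter read as fluorescence of individual clusters on recovered sequencing chips by microscopy, with normalized cluster intensities fitted with a binding model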
Assay: apparent KD of K4 kissing-loop reporter; higher = weaker reporter binding
Conditions: Eterna round: R107; input ligand: arginine 13.2 mM
property.measured: apparent KD of K4 kissing-loop reporter (µM)

>  <sequence.string>
AGAGAUAUAUGAGGAUAUGAGUUAGUUAAUGAGUUAGUUUUAGUGUUGUUUGGUUAGUGAUGUUAUUUAGAAGGCGUGAGUGAUG [cxfsmullin]

>  <observed.measurement>
0.0664

$$$$
>  <sequence.string>
GCCGCCGCGGCAGGAUAUAGACAUUGAGUGAUGUUCGGUGCUUAUCCAAAGUGCUGUUUCGGCCAACUAGAAGGGCCGCGGCGGC

>  <observed.measurement>
0.094

$$$$
>  <sequence.string>
UAGCGCAACCUGCUUACGUAUGAGCCGGAAGGAGCGGCAGAAUUGCCAGGUAGGUCGCCGGCCCAGUGAUGUUGGGAUGGUGUGG [Usritiis]

>  <observed.measurement>
0.226

$$$$
>  <sequence.string>
AUUUAGACGAGUGAUGUUCGUGUUUUUUCAGAGGAUAUGCGUAAUUGCAGAAGGCUGUAUUUAUAUAUGUUUUGUUUUUUUAAAA [JR_ExcFMNA_Sub008]

>  <observed.measurement>
0.0921

$$$$
>  <sequence.string>
GAUGCCAUGAUCCUCCUGGUAUCGGGAGAUACCAGCGUGCUGACACGCCCUUGGCAGCUCCAUUCGAGAGUGAUGUUGUCGAGAA [KL-SSTheo-A8 #analogue]

>  <observed.measurement>
0.114

$$$$
>  <sequence.string>
AAAAUAAACCAGUGAUGUUGGUGUCCAGAUACCAGCGAUAAAAUUCGCCCUUGGCAGCUGUGGACGUACAAAAUAAGUACGUCCU [MatMod 3 - Jieux - Same State - Theophylline A]

>  <observed.measurement>
0.555

$$$$
>  <sequence.string>
AAAAUAAACCAGUGAUGUUGGUGUCCAGAUACCAGCGGUAAAAUCCGCCCUUGGCAGCUGUGGACGUACAAAAUAAGUACGUCCU [MatMod 4 - Jieux - Same State - Theophylline A]

>  <observed.measurement>
0.321

$$$$
>  <sequence.string>
UGGACCUGACUCGAUAAGAGUCAAGGAGAUACCAGCCACGAAAGUGGCCCUUGGCAGCUCUGCCAGUGAUGUUGGUCAAGGUCCU [#SwitchBubble 7 #StaticStem]

>  <observed.measurement>
0.696

$$$$
>  <sequence.string>
CCAAUCUGUUACGAUACCAGUCAAAGAUAUUUUAUCAAUGCCCUCACCGAGUGAUGUUCGGACCCUUGGCAGCGUCUGGGAUAGG [ddfcmullin]

>  <observed.measurement>
0.142

$$$$
>  <sequence.string>
GCCUUUUUUCGAGCUACAGCUCGAUUUGGUCGAGGACCGGUACGGCCGCCACUCGAAUGAUAGUGAUGUUAUCAUUAUGGCAUAA [JR_ExcTryptoA_Sub023]

>  <observed.measurement>
0.166

$$$$
>  <sequence.string>
UGACAUUGCUCAGAUACCAGACAUGAGCAUCAGCCAUGUGCCAAAACGUACUAAAUAAAUGUCCCUUGGCAGCUGAGCAAUGUCU [TheoBX 13]

>  <observed.measurement>
0.0263

$$$$
>  <sequence.string>
UUUUAUAACCGAAGGAGCGCGUGGGCGCAGUGAUGUUGCGCCCGACAUCACUUCAACUUAACGCAGGUAGGUCGCGGUUUUAAUG [Arginine B (Excl) V3]

>  <observed.measurement>
0.147

$$$$

###

System: MS2 coat protein
Assay: apparent KD of MS2 coat protein; designed switch direction (-1 OFF switch, 1 ON switch): -1; higher = weaker reporter binding
Conditions: Eterna round: R95; input ligand: none
# key: entry, value: apparent KD of MS2 coat protein

>  <sequence.string>
ACCUAACAUGAGGAUCACCCAUGUCAGGAUAUCCGGCCUAUGGAAACAUAGGAAGAACGGAGAAGGGACAGAGG [ChP 04-04-2015 #9] (puzzle: Exclusion 1)

>  <unit.symbol>
nM

>  <apparent KD of MS2 coat protein>
43.1

$$$$
>  <sequence.string>
GAAUAGGCAGGAUAUACAUGAGGAUCACCCAUGUGCCGGCGAAAGGUACGUUCGAAAGGUAGAAGGGCCUAAAC [ChP 13.04.2015 #7] (puzzle: Exclusion 3)

>  <unit.symbol>
nM

>  <apparent KD of MS2 coat protein>
48.9

$$$$
>  <sequence.string>
GAUUAUGCGAGCUUUAGGGACAUGAGGAUCACCCAUGUUCGUCUUAUUAAUCUAGGUACACUGACAUACCUAAAUCU [JMF 64] (puzzle: Sensor v3, turn-off variant 1)

>  <unit.symbol>
nM

>  <apparent KD of MS2 coat protein>
21

$$$$
>  <sequence.string>
GCCAGAGCAGGAUAUCUAUAUUAUCACAUGAGGAUCACCCAUGUCCAGCGAAAGCUGGAGGGAGAAGGGCUCUGGC [Fiskers Ex 5 - 26] (puzzle: Exclusion 5)

>  <unit.symbol>
nM

>  <apparent KD of MS2 coat protein>
74.5

$$$$
>  <sequence.string>
GGUUGACAUGAGGAUCACCCAUGUGAGGAUAUGCGAGAGAAAAAAGUGAGGAAGAUAAGCAGAAGGCGCUGUCG [salish99-ex1_r3_013] (puzzle: Exclusion 1)

>  <unit.symbol>
nM

>  <apparent KD of MS2 coat protein>
260

$$$$
>  <sequence.string>
ACGUAUAGAGGAUAUAGUGAAUAUUACAUGAGGAUCACCCAUGUUCUUCAAAGCAUAUUCCUAGAAGGCUAAUGAA [EX-5 Malc#12] (puzzle: Exclusion 5)

>  <unit.symbol>
nM

>  <apparent KD of MS2 coat protein>
56.4

$$$$
>  <sequence.string>
CUAGAUCUUCGGAUCUAGUACAUGAGGAUCACCCAUGUGACGAGUAGAUCCUCAAACAAGCUUUUUGCUCGUCUUAU [Sensor v3 - Turn-off variant 1 - 20] (puzzle: Sensor v3, turn-off variant 1)

>  <unit.symbol>
nM

>  <apparent KD of MS2 coat protein>
111

$$$$
>  <sequence.string>
UAUAAUACAUAGGAUAUCGAAAUAAUCAUUUAACGAGAAGGAUGAACAUGAGGAUCACCCAUGUGGUAUCAUGG [Mat - Exclusion 6 - JL Mod - D11] (puzzle: Exclusion 6)

>  <unit.symbol>
nM

>  <apparent KD of MS2 coat protein>
319

$$$$
>  <sequence.string>
CUAGAUCUUCGGAUCUAGGACAUGAGGAUCACCCAUGUCACGAGCAGAUCUUCAUGCAAGCUUUUUGCUCGUCUUAU [Sensor v3 - Turn-off variant 1 - 37] (puzzle: Sensor v3, turn-off variant 1)

>  <unit.symbol>
nM

>  <apparent KD of MS2 coat protein>
33.4

$$$$
>  <sequence.string>
UUCCUACAUGAGGAUCACCCAUGUCAGGAUAUCUCCUCACCGCGAAAAGGCGGUGAAAAGAGAAGGGACAGGAA [Usbian] (puzzle: Exclusion 1)

>  <unit.symbol>
nM

>  <apparent KD of MS2 coat protein>
13.8

$$$$
>  <sequence.string>
AGUAACCGUCACGAAAGUGAUGGUUACACAAGUGUAAUAACAUGAGGAUCACCCAUGUCCUCAUUUGCUCGUUUUAU [Sensor 3 - 37] (puzzle: Sensor v3, turn-off variant 2)

>  <unit.symbol>
nM

>  <apparent KD of MS2 coat protein>
140

$$$$
>  <sequence.string>
CUUCACCCACCAGAGCUCACCCACAUACCUGCUCAGGUGACAUGAGGAUCACCCAUGUUUUUUGCCCGUCUUAUCUU [Atquertebi] (puzzle: Sensor v3, turn-off variant 2)

>  <unit.symbol>
nM

>  <apparent KD of MS2 coat protein>
34.3

$$$$
>  <sequence.string>
UUUUUAUUUUUUUAUUUUGACAUGAGGAUCACCCAUGUCACGAGCAGAUCUUCAUGCAAGCUUUUUGCUCGUCUUAU [Sensor v3 - Turn-off variant 1 - 40] (puzzle: Sensor v3, turn-off variant 1)

>  <unit.symbol>
nM

>  <apparent KD of MS2 coat protein>
98.4

$$$$
>  <sequence.string>
CUGAAGAAGUUAGUGGCCUACAUGAGGAUCACCCAUGUGAGGGACAUGUCGAGGCAGAAGCUGAGUGCUCGUCUGUA [JR_SV3TOV1_Sub042] (puzzle: Sensor v3, turn-off variant 1)

>  <unit.symbol>
nM

>  <apparent KD of MS2 coat protein>
17

$$$$
>  <sequence.string>
CUAGAUCUUCGGAUCUAGUACAUGAGGAUCACCCAUGUGACGAGUAUAUCUUCAAACAAGCUUUUUGCUCGUCUUAU [Sensor v3 - Turn-off variant 1 - 24] (puzzle: Sensor v3, turn-off variant 1)

>  <unit.symbol>
nM

>  <apparent KD of MS2 coat protein>
40.6

$$$$
>  <sequence.string>
GAGUGACAUGAGGAUCACCCAUGUAAGGAUAUACGGUUGGUAGAGAGAGGGCGAAAGGGUAGAAGGUACGAAGG [JR_Exclu1_Sub054] (puzzle: Exclusion 1)

>  <unit.symbol>
nM

>  <apparent KD of MS2 coat protein>
95.2

$$$$
>  <sequence.string>
ACAAGCUUUUUGCAAUUUAGUUUUGUUGCUUCGUAGGUAACAUGAGGAUCACCCAUGUAAGAGUGAUGUCGUCUUAU [JR_SV3TOV2_Sub084] (puzzle: Sensor v3, turn-off variant 2)

>  <unit.symbol>
nM

>  <apparent KD of MS2 coat protein>
609

$$$$
>  <sequence.string>
GCUUGGCGAGGAUAUACAUGAGGAUCACCCAUGUGAGAGAAUAAAGUGAGGAAGAAAAGUAGAAGGCGCUGAGG [Mat - Exclusion 3 - Mod of Salish D58] (puzzle: Exclusion 3)

>  <unit.symbol>
nM

>  <apparent KD of MS2 coat protein>
40.4

$$$$
>  <sequence.string>
GAAAAGGUAGGAUAUACGAAAAUAAAGGGUAGAAAAAAAACACAUGAGGAUCACCCAUGUAGAAGGACCAAAAG [salish99_ex2_r3_083] (puzzle: Exclusion 2)

>  <unit.symbol>
nM

>  <apparent KD of MS2 coat protein>
36.4

$$$$
>  <sequence.string>
ACAAGCUUUUUGCAUCAAGCAUUAAAGUCUGUGAUCGUAACAUGAGGAUCACCCAUGUAAGUUUUAUGUCGUCUUAU [JR_SV3TOV2_Sub097] (puzzle: Sensor v3, turn-off variant 2)

>  <unit.symbol>
nM

>  <apparent KD of MS2 coat protein>
41.1

$$$$
